- System Tested: GCN2 (Homo sapiens)
- Sequence (Q9P2K8 whole entry): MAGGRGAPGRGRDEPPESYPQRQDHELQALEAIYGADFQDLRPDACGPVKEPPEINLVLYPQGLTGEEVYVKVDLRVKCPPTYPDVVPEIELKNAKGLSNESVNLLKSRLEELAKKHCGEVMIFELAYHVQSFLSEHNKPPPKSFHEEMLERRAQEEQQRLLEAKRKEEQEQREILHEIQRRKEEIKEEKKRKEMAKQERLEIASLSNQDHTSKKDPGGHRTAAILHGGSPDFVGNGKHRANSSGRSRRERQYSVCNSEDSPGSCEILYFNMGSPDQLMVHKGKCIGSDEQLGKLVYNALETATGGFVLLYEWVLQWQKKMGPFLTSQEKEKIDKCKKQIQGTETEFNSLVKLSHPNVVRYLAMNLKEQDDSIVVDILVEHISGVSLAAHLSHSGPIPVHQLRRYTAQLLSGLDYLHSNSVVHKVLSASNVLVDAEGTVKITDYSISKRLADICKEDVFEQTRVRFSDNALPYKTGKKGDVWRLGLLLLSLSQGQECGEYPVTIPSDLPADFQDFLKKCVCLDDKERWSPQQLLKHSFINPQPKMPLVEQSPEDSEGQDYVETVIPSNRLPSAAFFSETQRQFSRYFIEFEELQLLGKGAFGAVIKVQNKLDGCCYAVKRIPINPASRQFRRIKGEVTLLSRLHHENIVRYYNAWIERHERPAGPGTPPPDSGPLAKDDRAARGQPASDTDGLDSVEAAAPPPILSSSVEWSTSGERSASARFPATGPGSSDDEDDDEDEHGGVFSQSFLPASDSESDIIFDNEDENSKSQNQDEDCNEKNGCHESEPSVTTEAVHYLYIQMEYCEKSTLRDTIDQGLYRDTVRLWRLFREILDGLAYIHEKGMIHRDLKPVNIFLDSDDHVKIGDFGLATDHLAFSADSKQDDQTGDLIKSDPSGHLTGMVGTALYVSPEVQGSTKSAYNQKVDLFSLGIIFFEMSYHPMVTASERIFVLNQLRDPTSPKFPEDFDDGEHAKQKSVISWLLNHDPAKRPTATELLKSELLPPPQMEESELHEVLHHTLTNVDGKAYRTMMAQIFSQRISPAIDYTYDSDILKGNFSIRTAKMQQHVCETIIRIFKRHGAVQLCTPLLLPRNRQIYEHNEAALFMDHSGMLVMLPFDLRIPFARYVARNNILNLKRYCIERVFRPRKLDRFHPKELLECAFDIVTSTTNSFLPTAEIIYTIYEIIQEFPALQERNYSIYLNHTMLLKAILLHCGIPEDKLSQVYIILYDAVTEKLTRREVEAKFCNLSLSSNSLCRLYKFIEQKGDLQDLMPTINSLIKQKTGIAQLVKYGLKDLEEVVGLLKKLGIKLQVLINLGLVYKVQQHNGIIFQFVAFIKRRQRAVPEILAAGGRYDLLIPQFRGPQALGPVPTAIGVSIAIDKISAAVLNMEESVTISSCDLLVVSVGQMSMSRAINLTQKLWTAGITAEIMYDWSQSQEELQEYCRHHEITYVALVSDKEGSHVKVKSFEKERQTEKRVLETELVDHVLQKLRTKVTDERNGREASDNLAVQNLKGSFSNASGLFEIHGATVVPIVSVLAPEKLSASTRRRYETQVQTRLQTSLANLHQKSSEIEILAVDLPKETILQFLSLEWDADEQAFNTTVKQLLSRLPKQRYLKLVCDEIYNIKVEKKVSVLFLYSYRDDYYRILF
- Test Protocol: GCN2 enzymatic endpoint assay: phosphorylation of GFP-eIF2α measured by TR-FRET (Lanthascreen)
- Type: biochemical
- Experimental Parameters: tested as described in Example 77; compound and/or hydrochloride, dihydrochloride or trifluoroacetic acid salt; read-out: IC 50 Activity
pIC50: −log10 of the molar value.
Let's look at some compounds and their measured pIC50.
Endpoint Label: pIC50

| Compound | System Tested | Result |
| --- | --- | --- |
| O=C(N[C@@H]1CCNC[C@H]1F)[C@@H]1CC[C@@H](Nc2ncc3c(Br)nn(-c4cc(F)c5ncccc5c4)c3n2)C1 | GCN2 (Homo sapiens) | 6.70 to 7.60 |
| CNC(=O)[C@]1(C)CC[C@@H](Nc2ncc3c(Br)nn(-c4ccc(C#N)c(CNS(C)(=O)=O)c4)c3n2)C1 | GCN2 (Homo sapiens) | 6.70 to 7.60 |
| Fc1cc(-n2nc(Br)c3cnc(NC4COC5(CCNCC5)C4)nc32)cc2cccnc12 (stereo not drawn) | GCN2 (Homo sapiens) | 6.70 to 7.60 |
| CN(C)C(=O)[C@@H]1CC[C@@H](Nc2ncc3c(Br)nn(-c4cc(F)c5ncccc5c4)c3n2)C1 | GCN2 (Homo sapiens) | 6.70 to 7.60 |
| CNC(=O)[C@]1(C)CC[C@@H](Nc2ncc3c(Br)nn(-c4cc5cccnc5cn4)c3n2)C1 | GCN2 (Homo sapiens) | 6.70 to 7.60 |
| CNC(=O)[C@]1(C)CC[C@@H](Nc2ncc3c(Br)nn(-c4ccc5ncsc5c4)c3n2)C1 | GCN2 (Homo sapiens) | 6.70 to 7.60 |
| CNC(=O)[C@]1(CC(F)F)CC[C@@H](Nc2ncc3c(Br)nn(-c4ccc5ncncc5c4)c3n2)C1 | GCN2 (Homo sapiens) | 6.70 to 7.60 |
| CNC(=O)[C@@H]1CC[C@@H](Nc2ncc3c(Br)nn(-c4ccc(N5CCOCC5)c(C#N)c4)c3n2)C1 | GCN2 (Homo sapiens) | 6.00 to 6.30 |
| CNC(=O)[C@]1(C)CC[C@@H](Nc2ncc3c(Br)nn(-c4cc(CCN)c5ncc(C#N)cc5c4)c3n2)C1 | GCN2 (Homo sapiens) | 6.70 to 7.60 |
| CNC(=O)[C@]1(C)CC[C@@H](Nc2ncc3c(Br)nn(-c4ccc5c(c4)SCC(=O)N5C)c3n2)C1 | GCN2 (Homo sapiens) | 6.70 to 7.60 |
| COCCN(C)C(=O)[C@]1(C)CC[C@@H](Nc2ncc3c(Br)nn(-c4cc(F)c5ncccc5c4)c3n2)C1 | GCN2 (Homo sapiens) | > 7.60 |
| CNC(=O)[C@]1(C)CC[C@@H](Nc2ncc3c(Br)nn(-c4cc(F)c5nc(C(C)(C)N)ccc5c4)c3n2)C1 | GCN2 (Homo sapiens) | 6.70 to 7.60 |
| Cc1nnc(-c2ccc(-n3nc(Br)c4cnc(N[C@@H]5CC[C@@](C)(C(=O)N6CCNCC6)C5)nc43)cc2CCC#N)s1 | GCN2 (Homo sapiens) | 6.70 to 7.60 |
| C[C@@]1(C(=O)N2CCN3C(=O)CC[C@H]3C2)CC[C@@H](Nc2ncc3c(Br)nn(-c4cc(F)c5ncccc5c4)c3n2)C1 | GCN2 (Homo sapiens) | 6.70 to 7.60 |
| Cc1nnc(-c2ccc(-n3nc(Br)c4cnc(N[C@@H]5CCC(C)(C(=O)N6C[C@@H](C)O[C@H](C)C6)C5)nc43)cc2)o1 (stereo partly drawn) | GCN2 (Homo sapiens) | 6.70 to 7.60 |
| Cn1ccnc1-c1ccc(-n2nc(Br)c3cnc(N[C@@H]4CC[C@@H](C(=O)NCCS(C)(=O)=O)C4)nc32)cc1 | GCN2 (Homo sapiens) | 6.00 to 6.30 |
| CNC(=O)[C@H]1C[C@H](Nc2ncc3c(Br)nn(-c4cc(Cl)cc(CO)c4)c3n2)CO1 | GCN2 (Homo sapiens) | 6.70 to 7.60 |
| COCCNC(=O)[C@@H]1CC[C@@H](Nc2ncc3c(Br)nn(-c4ccc5nccn5c4)c3n2)C1 | GCN2 (Homo sapiens) | 6.00 to 6.30 |
